# Test system: 616215-338-R-J1-PDC tumor spheroids, viability;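 further: spheroids exposed to agents for 7 days before readout; percent viability relative to DMSO vehicle control wells taken as 100%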
# ASSAY_SUMMARY: Anticancer human tumor 616215-338-R-J1-PDC patient-derived colon adenocarcinoma cell line growth inhibition [GQUAD]
# STUDY_CONDITIONS: second compound 0.1 µM; first compound 10 µM; stronger effect = lower value; spheroids with HUVEC and MSC
Task for the reader: assign each of the following compounds its reported viability, T/C.
Answers are plain numbers, in %.

• CC1COCCN1c1cc(C2(S(C)(=N)=O)CC2)nc(-c2ccnc3[nH]ccc23)n1 (stereo not given) + CN(C)c1ccc(Nc2c3ccc(NC(=O)CCN4CCCC4)cc3nc3cc(NC(=O)CCN4CCCC4)ccc23)cc1 = 28.2
• COc1ncnc(C2CC2)c1-c1ncc2cnn(Cc3ccc(-c4nc(C(F)(F)F)cn4C(C)C)cc3)c2n1 + Cc1[nH]c2ccc(F)cc2c1-c1nc2c3cccnc3c3ncccc3c2[nH]1 = 105
• CC(C)n1c(=O)n(C)c2cnc3cc(F)c(-c4ccc(OCCCN5CCCCC5)nc4)cc3c21 + Cc1cnc(CNC(=O)c2c(=O)c3ccc(N4CCCN(C)CC4)nc3n3c2sc2ccccc23)cn1 = 28.8
• O=C(c1cc(Cc2n[nH]c(=O)c3ccccc23)ccc1F)N1CCN(C(=O)C2CC2)CC1 + Cc1cnc(CNC(=O)c2c(=O)c3ccc(N4CCCN(C)CC4)nc3n3c2sc2ccccc23)cn1 = 51.5

Would you kindly look at the next entry?
Reading of viability, T/C for O=C(c1cc(Cc2n[nH]c(=O)c3ccccc23)ccc1F)N1CCN(C(=O)C2CC2)CC1 + CN(C)c1ccc(Nc2c3ccc(NC(=O)CCN4CCCC4)cc3nc3cc(NC(=O)CCN4CCCC4)ccc23)cc1 with 616215-338-R-J1-PDC tumor spheroids, viability: 74.8
